- TARGET SYSTEM: KCNQ2/3 channels (Homo sapiens, UniProt O43525+O43526)
- Construct: expressed in transfected cells
- TEST: Fluorescence assay using a voltage sensitive dye (fluorimetry)
- Format: cell-based
- RECORDED CONDITIONS: CHO-K1 cells expressing KCNQ2/3 channels; relative to retigabine = 100%; read-out: Fluorimetry % efficacy (retigabine = 100%)
- Description: Fluorescence Assay using a Voltage Sensitive Dye […] The fluorescence measurements are carried out with a BMG Labtech FLUOstar™, BMG Labtech NOVOstar™ or BMG Labtech POLARstar™ instrument (525 nm excitation, 560 nm emission, Bottom Read mode). […] The fluorescence intensity of the dye is then measured for 5 min and the fluorescence value F1 of each well is thus determined at a given, constant time. […]
PARAMETER: Emax (%)

O=C(CC1CCCCC1)Nc1cc2ccccc2nc1SCCS(=O)(=O)c1ccccc1 ... 80
CCSc1nc2ccccc2cc1NC(=O)CCC1CCCC1 ... 143
CCSc1nc2ccccc2cc1NC(=O)Cc1cccs1 ... 93
CCSc1nc2cc(C(F)(F)F)ccc2cc1NC(=O)CC1CC2CCC1C2 (stereo not shown) ... 66
CCSc1nc2ccccc2cc1NC(=O)CC(C)(C)C ... 142

[1] CCSc1nc2cc(C(F)(F)F)ccc2cc1NC(=O)CCC1CCCC1
[2] O=C(CCC1CCCCC1)Nc1cc2ccccc2nc1SCCS(=O)(=O)c1ccccc1
[3] CCSc1nc2cc(C(F)(F)F)ccc2c(C)c1NC(=O)Cc1cccs1
Prompt: Place the items in sequence of falling Emax. # format: label list in the order the request specifies
Response: 3, 2, 1
(3: 140%, 2: 97%, 1: 62%)

[1] CCSc1nc2ccccc2cc1NC(=O)CC1CCCCC1
[2] CCCCCSc1nc2ccccc2cc1NC(=O)Cc1cccs1
[3] CCSc1nc2ccccc2cc1NC(=O)CC1CC2CCC1C2 (stereo not shown)
[4] CCSc1nc2cc(C(F)(F)F)ccc2cc1NC(=O)CC(C)(C)C
Prompt: Order each entry by recorded Emax, climbing from the minimum. # format: label list in the order the request specifies
Response: 4, 2, 1, 3

[P] CCSc1nc2cc(C(F)(F)F)ccc2c(C)c1NC(=O)CCC1CCCC1
[Q] CCSc1nc2cc(C(F)(F)F)ccc2cc1NC(=O)Cc1cccs1
[R] O=C(Cc1cccs1)Nc1cc2ccccc2nc1SCCSc1ccccc1
Prompt: Order each entry by recorded Emax, climbing from the minimum. # format: label list in the order the request specifies
Response: R, Q, P
(R: 25%, Q: 57%, P: 107%)

----------
- TARGET SYSTEM: KCNQ2/3 channels (Homo sapiens, UniProt O43525+O43526)
- TEST: Fluorescence assay using a voltage sensitive dye (fluorimetry)
- RECORDED CONDITIONS: CHO-K1 cells expressing KCNQ2/3 channels, agonistic activity
pEC50: −log10 of the molar value.
PARAMETER: pEC50

Worked cases, answers included:
CCSc1nc2cc(C(F)(F)F)ccc2c(C)c1NC(=O)CCC1CCCC1 ... 7.18
CCSc1nc2ccccc2cc1NC(=O)CCC1CCCC1 ... 7.09
O=C(CC1CCCCC1)Nc1cc2ccccc2nc1SCCS(=O)(=O)c1ccccc1 ... 6.60
CCSc1nc2ccccc2cc1NC(=O)CC1CCCCC1 ... 6.82
CCSc1nc2cc(C(F)(F)F)ccc2cc1NC(=O)Cc1cccs1 ... 5.94

[P] CCSc1nc2ccccc2cc1NC(=O)CC(C)(C)C
[Q] CCSc1nc2cc(C(F)(F)F)ccc2c(C)c1NC(=O)Cc1cccs1
[R] CCSc1nc2ccccc2cc1NC(=O)Cc1cccs1
[S] CCSc1nc2cc(C(F)(F)F)ccc2cc1NC(=O)CCC1CCCC1
Prompt: Order each entry by recorded pEC50, climbing from the minimum. # format: label list in the order the request specifies
Response: S, P, R, Q
(S: 5.30, P: 6.38, R: 6.81, Q: 7.03)

[P] CCCCCSc1nc2ccccc2cc1NC(=O)Cc1cccs1
[Q] O=C(CCC1CCCCC1)Nc1cc2ccccc2nc1SCCS(=O)(=O)c1ccccc1
[R] CCSc1nc2cc(C(F)(F)F)ccc2cc1NC(=O)CC1CC2CCC1C2 (centres unmarked)
[S] O=C(Cc1cccs1)Nc1cc2ccccc2nc1SCCS(=O)(=O)c1ccccc1
Prompt: Order each entry by recorded pEC50, climbing from the minimum. # format: label list in the order the request specifies
Response: R, Q, P, S
(R: 6.19, Q: 6.76, P: 6.97, S: 7.17)

Entry source: patent US8207342B2
